Source: ChEMBL document CHEMBL1764973

This document collects Ki values reported for Cannabinoid receptor 1 (Homo sapiens).
quantity: Ki

smiles str: Cc1c(C(=O)NC2(C#N)CCOCC2)nn(-c2ccccc2Cl)c1-c1ccccc1
experimental value: > 10 µM
--
smiles str: COc1ccc(-c2c(C)c(C(=O)NC3(C#N)CCOCC3)nn2-c2ccccc2F)cc1
experimental value: 0.115 µM
--
smiles str: Cc1c(C(=O)NC2(C#N)CCOCC2)nn(-c2ccccc2Br)c1-c1cccc(F)c1
experimental value: > 10 µM
